- Tested on: lab-adapted and clinical HIV-1 isolates
- assay_explanation: Infection assays in primary T CD4+ lymphocytes
- Format: cell-based
- condition_info: Human immunodeficiency virus 1, Lymphocyte, read-out: EC50 KER2008 (A)
property_name: EC50 (nM)
Just the number please, in nM, no unit attached.

Any idea what EC50 was measured for "Cc1nnc(C(=O)NC(C)(C)c2nc(C(=O)NCc3ccc(F)cc3)c(O)c(=O)n2C)o1" ? 6.7

Any idea what EC50 was measured for "Cc1ccc(C2CC2)c(-c2ccc3c(c2C)CCCO3)c1[C@H](OC(C)(C)C)C(=O)O" ? 6.4

Any idea what EC50 was measured for "Cc1ccc(C2CC2)c(-c2ccc3c(c2)CCCO3)c1[C@H](OC(C)(C)C)C(=O)O" ? 8.1

Any idea what EC50 was measured for "Cc1ccc(C2CC2)c(-c2ccc3c(c2C)CCCO3)c1[C@H](OC1CC1)C(=O)O" ? 19
